Target: T1, 4H_BCR
T1 chain: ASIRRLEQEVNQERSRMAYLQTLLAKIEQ
Assay: two-hybrid library CCmax;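 note: natural log of median RNA to DNA barcode read ratio; higher means stronger binding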
Settings: mean of both orientations
outcome_measure: interaction score
API note: the answer field is a bare number with no unit suffix.

Example entries and their recorded answers appear below.
{"columns": ["binder", "interaction score"],
 "data": [
  ["DKNAALKAKNAALKAEIAALEAKIAALKG [4H4038-AA]", -1.53],
  ["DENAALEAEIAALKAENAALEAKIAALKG [4H1110-AA]", 0.0686],
  ["DEIAALEAKIAALKAKIAALEAENAALEG [4H355-AA]", -1.56]
]}

// next entry
Quick check: interaction score of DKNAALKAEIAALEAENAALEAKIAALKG [4H3606-AA] ?
-0.919
